Please provide measured selectivity ratio for the entries that follow.
method-notes: Selectivity index, ratio of TC50 for african green monkey Vero cells to IC50 for Coxsackievirus B5 infected in african green monkey Vero cells
Type: toxicity, cell-based
assay-context: read-out: Selectivity Index
API doc: respond with a numeric literal and nothing else, no unit.

Looking for the measured selectivity ratio of "O=[N+]([O-])c1ccccc1S(=O)(=O)N1C[C@@H]2CCCN3CCC[C@@H]([C@H]23)[C@H]1/C=C\CCO" , can you help?
46.8

selectivity ratio lookup needed for "COC(=O)C/C=C\[C@@H]1[C@H]2CCCN3CCC[C@@H](CN1S(=O)(=O)c1cccc(C#N)c1)[C@@H]23" , thanks.
46.7

###

Exercise: for every item that follows, state its recorded pIC50.
System: Coxsackievirus
method-notes: Antiviral activity against Coxsackievirus B6 infected in african green monkey Vero cells assessed as reduction in viral-induced cytopathic effect
Format: functional, organism-based
When answering, recall that pIC50 equals minus log10 of the concentration in mol/L, and write that number alone.

Requested read-out pIC50, target or system Coxsackievirus, entry "COC(=O)C/C=C\[C@@H]1[C@H]2CCCN3CCC[C@@H](CN1S(=O)(=O)c1cccc(C#N)c1)[C@@H]23"
5.55

Give pIC50 (Coxsackievirus) of the following molecule: "COC(=O)CCC[C@@H]1[C@H]2CCCN3CCC[C@@H](CN1S(=O)(=O)c1cccc(C(F)(F)F)c1)[C@@H]23"
6.36

Field: pIC50 (Coxsackievirus). Entry: "O=[N+]([O-])c1ccccc1S(=O)(=O)N1C[C@@H]2CCCN3CCC[C@@H]([C@H]23)[C@H]1/C=C\CCO"
6.21

Form field: pIC50 recorded for "NC(=O)c1ncn([C@@H]2O[C@H](CO)[C@@H](O)[C@H]2O)n1" with Coxsackievirus (enter value)
2.77

###

method-notes: Selectivity index, ratio of TC50 for african green monkey Vero cells to IC50 for Coxsackievirus B3 infected in african green monkey Vero cells
Format: toxicity, cell-based
assay-context: read-out: Selectivity Index
Decision: selectivity ratio >= 30 yields Satisfied, all other cases yield Not satisfied.

Dear colleague, could you confirm whether "COC(=O)C/C=C\[C@@H]1[C@H]2CCCN3CCC[C@@H](CN1S(=O)(=O)c1cc(Br)c(Br)s1)[C@@H]23" has selectivity ratio at or above 30?
Not satisfied

Given "COC(=O)CCC[C@@H]1[C@H]2CCCN3CCC[C@@H](CN1S(=O)(=O)c1ccc(C(F)(F)F)cc1)[C@@H]23" , state whether its selectivity ratio is at least 30.
Not satisfied

Item "N#Cc1cccc(S(=O)(=O)N2C[C@@H]3CCCN4CCC[C@@H]([C@H]34)[C@H]2CCCC(=O)O)c1" with selectivity ratio of 30 or above?
Not satisfied

Check if selectivity ratio >= 30 (inclusive). Item: "O=C(O)/C=C/C[C@@H]1[C@H]2CCCN3CCC[C@@H](CN1S(=O)(=O)c1ccccc1C(F)(F)F)[C@@H]23"
Not satisfied

Is the recorded value of selectivity ratio equal to or greater than 30 for this molecule? "O=S(=O)(c1ccc(C(F)(F)F)cc1)N1C[C@@H]2CCCN3CCC[C@@H]([C@H]23)[C@H]1/C=C\CCO"
Not satisfied

Given the entry "COC(=O)C/C=C\[C@@H]1[C@H]2CCCN3CCC[C@@H](CN1S(=O)(=O)c1ccccc1C#N)[C@@H]23" , answer whether its selectivity ratio meets or surpasses 30.
Satisfied

Would you say "COC(=O)C/C=C\[C@@H]1[C@H]2CCCN3CCC[C@@H](CN1S(=O)(=O)c1ccccc1[N+](=O)[O-])[C@@H]23" shows selectivity ratio at minimum 30?
Satisfied
